assay_target: Motilin Receptor (Oryctolagus cuniculus, UniProt G1T803)
Construct: The muscle tissue was homogenized in 10 volumes of 50 mM Tris-Cl; from tissue; host or cells: rabbit colon smooth muscle, crude membrane homogenate
Sequence (G1T803 1-400): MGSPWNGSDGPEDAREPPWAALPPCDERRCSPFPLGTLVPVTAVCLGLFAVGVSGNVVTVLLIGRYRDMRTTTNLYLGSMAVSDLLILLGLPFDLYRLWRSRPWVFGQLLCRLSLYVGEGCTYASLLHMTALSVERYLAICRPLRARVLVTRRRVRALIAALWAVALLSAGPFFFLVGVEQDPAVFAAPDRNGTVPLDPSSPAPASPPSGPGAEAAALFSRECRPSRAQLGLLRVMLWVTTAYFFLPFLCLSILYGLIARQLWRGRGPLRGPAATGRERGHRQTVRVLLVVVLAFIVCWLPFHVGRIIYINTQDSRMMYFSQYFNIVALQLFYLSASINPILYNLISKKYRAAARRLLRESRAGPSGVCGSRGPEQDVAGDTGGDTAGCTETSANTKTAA
test_protocol: Motilin receptor binding, rabbit colon membranes, 125I porcine motilin
Parameters: dose or concentration left out as unconfirmed
experimental_context: rabbit colon membranes; read-out: Rabbit Colon % Inh
metric: inhibition (%)
Just the number in %, nothing appended.

Worked set:
compound	metric	value_observed
CC(C)(C)C(=O)N(Cc1cccc(Cl)c1)C1CCCC(CN(C(=O)c2ccc(F)cc2)c2cccc(OCCN3CCOCC3)c2)C1 (stereo not shown)	inhibition	80
O=C(Nc1ccccc1)N(CC1CCCC(NC(=O)C(Cl)(Cl)Cl)C1)c1cccc(OCCN2CCOCC2)c1 (stereo not shown)	inhibition	40
Cc1ccc(OCCN2CCCC2)cc1N(Cc1ccc(F)cc1)C(=O)CCCC(=O)N(CCc1ccccc1)Cc1ccccc1	inhibition	87

-- ask Determine from records and report inhibition for CC(C)(C)C(=O)N(Cc1ccccc1)C1CCCC(CN(C(=O)c2ccc(F)cc2)c2cccc(OCCN3CCOCC3)c2)C1 (stereo not shown)
-- reply 61
